# TARGET OF ASSAY: T1, activated KLK4 (human KLK4, C-terminal His tag, pro-KLK4 activated with thermolysin) (UniProt Q9Y5K2 31-254)
# T1 chain: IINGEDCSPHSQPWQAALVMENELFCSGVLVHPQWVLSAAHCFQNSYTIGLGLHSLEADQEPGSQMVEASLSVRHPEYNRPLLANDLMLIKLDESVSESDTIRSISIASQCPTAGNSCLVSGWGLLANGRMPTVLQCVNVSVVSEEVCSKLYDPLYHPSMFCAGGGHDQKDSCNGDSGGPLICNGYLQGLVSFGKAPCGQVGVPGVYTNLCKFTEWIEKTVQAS
# MEASUREMENT NOTES: peptide substrate degradation inhibition
ENDPOINT LABEL: IC50 (nM)
Express the result in nM but write the number alone.

Exercise: Please look up its IC50: KLK4 inhibitory peptide K40005 (designed binder) GSGMKETAAAKFERQHMDSPDLGTDDDDKAMADIGSANSDPQFGLFSKYRTPNCSQQAMGACQRIYKPVCGSDMSTYANECTLCMKIREGGHNIKIIRNGPCGASAAA
Key: 2.2
